Data origin: ChEMBL document CHEMBL5137125

Assay Procedure: Cytotoxicity against human WPMY-1 cells assessed as inhibition of cell growth and measured after 72 hrs resazurin reduction assay
Assay type: toxicity, cell-based
Experimental Setup: WPMY-1 cells
Metric Name: IC50 at 72 h (nM)
Lab book: enter the figure in nM, no units written.

COc1cccc2c1C(=O)c1c(O)c3c(c(O)c1C2=O)C[C@@](O)(C(=O)CO)C[C@@H]3O[C@H]1C[C@H](N)[C@H](O)[C@H](C)O1 ... 20

For CC(=O)O[C@@]12CO[C@@H]1C[C@H](O)[C@@]1(C)C(=O)[C@H](O)C3=C(C)[C@@H](OC(=O)[C@H](O)[C@@H](NC(=O)OC(C)(C)C)c4ccccc4)C[C@@](O)([C@@H](OC(=O)c4ccccc4)[C@H]21)C3(C)C [DOCETAXEL ANHYDROUS] , write its IC50 at 72 h.
210
